assay summary: growth rescue of sdo1-depleted yeast, primary screen, S. cerevisiae, bone marrow failure model (AID 817);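 further: z-score against mean and SD of all compound wells on the same plate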
setup conditions: S. cerevisiae sdo1-depleted JHY4D growth rescue, OD600; measured here: growth rescue at 24 h; at 10 µM; stronger effect = higher value; pdr5 snq2 efflux-pump mutant strain
About 300 (0.21%) of roughly 140,000 compounds were called active. The list comes from a sample in which actives are over-represented; it also holds close analogues and randomly drawn compounds.
measure: z-score

compound	z-score
C=CCn1c(SCc2ccc(Cl)c(Cl)c2)nnc1C(CO)NC(=O)c1ccc(OC)cc1 (stereo unspecified)	-0.41

Query: What does the record list as z-score for `O=C(NC(=S)Nc1ccc2oc(=O)ccc2c1)c1ccc(-c2cccc(Cl)c2Cl)o1` ?
Reply: 0.44

Query: Same again, this time with CCc1ccc(C2N3CC4([N+](=O)[O-])CN2CC([N+](=O)[O-])(C3)C4(C)C)cc1 (stereo unspecified)
Reply: 1.35

###

assay summary: growth rescue of sdo1-depleted yeast, primary screen, S. cerevisiae, bone marrow failure model (AID 817);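 further: z-score against mean and SD of all compound wells on the same plate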
setup conditions: S. cerevisiae sdo1-depleted JHY4D growth rescue, OD600 30 h; at 10 µM; pdr5 snq2 efflux-pump mutant strain
Screen size: about 140,000 compounds; about 300 (0.21%) were called active.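 How the source made its calls: active means z-score above 3 at both the 24 hr and the 30 hr optical density reads; inactive means the rest, inconclusive results apart.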 The list comes from a sample in which actives are over-represented; it also holds close analogues and randomly drawn compounds.
Choose one outcome from this list and give only that: yes for active, no for inactive

Some solved entries appear below for comparison.
molecule	assigned label
C=CCN1C(=O)C(Cc2ccc(OCC)cc2)SC1=Nc1ccc(C(=O)O)cc1 (configuration not stated)	no
N#C/C(=C\C1=C(N2CCOCC2)C(=C\c2ccccc2)/CC1)C(=O)Nc1ccccc1F	no
COCCn1c(=O)[nH]c(=O)c2cc(C(=O)c3cc(OC)ccc3O)cnc21	no
CN(C)C(CNC(=O)c1ccc(S(=O)(=O)NCc2ccco2)cc1)c1ccccc1 (configuration not stated)	no
Cc1ccc(N=C2NC(=O)c3cccc([N+](=O)[O-])c32)cc1	no
COc1cc(OC)nc(S(C)(=O)=O)n1	yes
O=C(COC(=O)/C=C/c1cccc(Cl)c1)NCCc1ccccc1	yes
COc1cc(OC)nc(NC(=O)CCl)n1	no

Query: GET /call?item= `Cc1sc2nc(CC(N)=O)[nH]c(=O)c2c1-c1ccccc1` returns the recorded outcome of this test.
Reply: no

Query: Same again, this time with `O=C(COC(=O)/C=C/c1nc2ccccc2s1)Nc1ccccc1Oc1ccccc1`
Reply: no

Query: Same again, this time with `CSCC[C@H](NC(=O)OC(C)(C)C)C(=O)N/N=C/c1cc2ccc(C)cc2nc1Cl`
Reply: no

Query: Same again, this time with `Cc1ccc(C(=O)CNc2ccc(F)cc2)cc1`
Reply: no

Query: Same again, this time with `COc1ccc(CC(=O)Nc2cc(S(=O)(=O)N3CCCCC3)ccc2N2CCN(C)CC2)cc1`
Reply: no

Query: Same again, this time with O=C1NC(c2ccccc2)CCC1(Cl)Cl (configuration not stated)
Reply: no

Query: Same again, this time with `O=c1c2sccc2nc(SCc2cc(=O)n3ccccc3n2)n1-c1ccc(Br)cc1`
Reply: no

Query: Same again, this time with `COc1ccc(/C=C/C(=O)OCC(=O)NCc2cccs2)cc1OC`
Reply: no

Query: Same again, this time with `COc1cc(/C=C/C(=O)OCC(=O)Nc2cccc(Oc3ccccc3)c2)ccc1O`
Reply: no
